# Target: human FLT3 on transfected CHO cells (human) (UniProt P36888)
# Measurement notes: FACS, scFv on CHO-human FLT3 cells pre-incubated with FLT3 ligand (competitor)
Assay endpoint: median [+ligand]/median [w/o ligand]*100

Example entries begin here.
FL-14 (scFv) scFv: QVTLKESGPALVKPTETLTLTCTLSGFSLNNARMAVSWIRQPPGKTLEWLAHIFSNDEKSYSTSLKSRLTISKDTSKGQVVLTMTNMDPVDTATYYCARIVGYGSGWYGYFDYWGQGTLVTVSSGGGGSGGGGSGGGGSDIQMTQSPSSLSASVGDRVTITCRASQDIRNDLGWYQQKPGKAPKRLIYAASTLQSGVPSRFSGSGSGTEFTLTISSLQPEDFATYYCLQHNSYPLTFGGGTKVEIK
> 75%
FL-29 (scFv) scFv: QVTLKESGPALVKPTQTLTLTCTFSGFSLSNARMGVSWIRQPPGKALEWLAHIFSNDEKSYRTSLKSRLTISKDTSKSQVVLTMTNMDPVDTATYYCARIVGYGSGWYAYFDYWGQGTLVTVSSGGGGSGGGGSGGGGSDIQMTQSPSSLSASVGDRVTITCRASQGIRNDLGWYQQKPGKAPKRLIYAASSLQSGVPSRFSGSGSGTEFTLTISSLQPEDFATYYCLQHNSYPLTFGGGTKVEIK
> 75%
FL-8 (scFv) scFv: QVTLKESGPALVKPTETLTLTCTVSGFSLSYARMGVSWIRQPPGKALEWLAQIFSNDEKSYSTSLKSRLTISKGTSNSQVVLTMTNMDPEDTATYYCARIVGYGTGWYGFFDYWGQGILVTVSSGGGGSGGGGSGGGGSDIQMTQSPSSLSASVGDRVTITCRASQGIRNDLGWYQQKPGKAPKRLIYAASSLQSGVPSRFSGSGSGTEFTLTISSLQPEDFATYYCLQHNSYPLTFGGGTKVDIK
> 75%

Please give median [+ligand]/median [w/o ligand]*100 for each item listed below.
1. FL-10 (scFv) scFv: QVTLKESGPVLVKPTETLTLTCTVSGFSFRNARMGVSWIRQPPGKALEWLAHIFSNDEKSYSTSLKSRLTISKDTSKSQVVLTLTNMDPVDTATYFCARMPEYSSGWSGAFDIWGQGTMVTVSSGGGGSGGGGSGGGGSDIQMTQSPSSLSASVGDRVTITCRASQDIRDDLGWYQQKPGNAPKRLIYGASTLQSGVPSRFSGSGSGTEFTLTISSLQPEDFATYYCLQHNSYPLTFGGGTKVDIK
2. FL-62 (scFv) scFv: QVQLVESGGGVVQPGRSLRLSCAASGFTFSSYGMHWVRQAPGKGLEWVAVISYDGSNEFYADSVKGRFTISRDNSKNTLYLQMNSLRAEDTAVYYCARGGEITMVRGVIGYYYYGMDVWGQGTTVTVSSGGGGSGGGGSGGGGSEIVMTQSPATLSVSPGERATLSCRASQGVRNNLVWYQQKPGQAPRLLIYGASTRATGIPARFSGSGSGTEFTLTISSLQSEDFATYYCLQHNSYPLTFGGGTKVEIK
3. FL-9 (scFv) scFv: QVTLKESGPTLVKPTETLTLTCTVSGFSLSNARMGVSWIRQPPGKALEWLAHIFSNDEKSYSTSLKSRLTISKDTSKSQVVLTMTNMDPVDTATYYCARIPGYGGNFYYHYYGMDVWGQGTTVTVSSGGGGSGGGGSGGGGSDIQMTQSPSSLSASVGDRVTITCRASQGIRNDLAWYQQKPGKAPKRLIYAASTVQSGVPSRFSGSGSGTEFALTISSLQPEDFATYYCLQHNSFPWTFGQGTKVDIK
4. FL-43 (scFv) scFv: QVTLKESGPVLVKPTETLTLTCTVSGFSFRNARMGVSWIRQPPGKCLEWLAHIFSNDEKSYSTSLKSRLTISKDTSKSQVVLTLTNMDPVDTATYFCARMPEYSSGWSGAFDIWGQGTMVTVSSGGGGSGGGGSGGGGSDIQMTQSPSSLSASVGDRVTITCRASQGIRNDLVWYQQKPGKAPKRLIYGTSTLQSGVPSRFSGSGSGTEFTLTISSLQPEDFATYYCLQHNSYPLTFGCGTKVEIK
5. FL-32 (scFv) scFv: QVTLKESGPTLVKPTETLTLTCTVSGFSFRNARMGVSWIRQPPGKALEWLAHIFSNDEKSYSTSLKSRLTISKDTSKGQVVLTMTNMDPVDTATYYCARIVGYGSGWYGYFDYWGQGTLVTVSSGGGGSGGGGSGGGGSDIQMTQSPSSLSASVGDRVTITCRASQGIRNDLVWYQQKPGKAPKRLIYAASTLQSGVPSRFSGSGSGTEFILTISSLQPEDFATYFCLQHYSYPLTFGGGTKLEIK

Outgoing:
["> 75%", "> 75%", "> 75%", "> 75%", "> 75%"]

Please give median [+ligand]/median [w/o ligand]*100 for each item listed below.
1. FL-20 (scFv) scFv: QVTLKESGPALVKPTETLTLTCTLSGFSLNNARMAVSWIRQPPGKTLEWLAHIFSNDEKSYSTSLKSRLTISKDTSKSQVVLTMTNMDPEDTATYYCARIVGYGTGWYGFFDYWGQGILVTVSSGGGGSGGGGSGGGGSDIQMTQSPSSLSASVGDRVTITCRASQGIRNDLAWYQQKPGKAPKRLIYAASSLQSGVPSRFSGSGSGTEFTLTISSLQPEDFATYYCLQHNSYPLTFGGGTKVEIK
2. FL-11 (scFv) scFv: QVTLKESGPVLVKPTETLTLTCTLSGFSLNNAKMGVSWIRQPPGKALEWLAQIFSNGEKSYSTSLKSRLTISKDTSKGQVVLTMTNMDPVDTATYYCSRIVGYGSGWYGYFDYWGQGTLVTVSSGGGGSGGGGSGGGGSDIQMTQSPSSLSASVGDRVTITCRASQGIRNDLGWYQQKPGKAPKRLIYGASTLQSGVPSRFSGSGSGTEFTLTISSLQPEDFATYYCLQHNSYPLTFGGGTKVEIK

Outgoing:
["> 75%", "> 75%"]
